Origin of the recorded values: patent US20230012273A1

biological target: T1, full-length human SIRPαV2 (CAA71403.1) on cells (human, UniProt P78324 31-504); assay: flow cytometry, Expi-CHO cells
T1 construct: one molecule for CHO-K1 and Expi-CHO transfectants (CAA71403.1) and for endogenous V2 on THP-1 cells and on CD14+ monocytes of V2/V2 donors; also called CHO-hSIRPαV2; αV2 WT
T1 sequence (P78324 other isoform, or with tags, fused parts or gaps): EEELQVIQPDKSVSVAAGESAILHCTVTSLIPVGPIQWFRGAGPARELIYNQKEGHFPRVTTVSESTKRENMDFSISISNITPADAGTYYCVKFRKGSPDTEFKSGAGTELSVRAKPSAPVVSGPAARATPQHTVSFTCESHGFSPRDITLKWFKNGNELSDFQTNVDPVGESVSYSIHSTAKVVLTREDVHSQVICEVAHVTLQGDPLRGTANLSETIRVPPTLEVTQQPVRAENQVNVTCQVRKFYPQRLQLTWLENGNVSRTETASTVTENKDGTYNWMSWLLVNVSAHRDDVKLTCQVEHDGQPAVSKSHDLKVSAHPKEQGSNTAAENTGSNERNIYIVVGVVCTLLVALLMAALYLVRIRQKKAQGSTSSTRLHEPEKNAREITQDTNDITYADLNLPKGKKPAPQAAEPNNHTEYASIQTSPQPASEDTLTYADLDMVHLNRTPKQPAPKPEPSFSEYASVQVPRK
OBSERVATION TYPE: pEC50
Here pEC50 is given on a logarithmic scale as minus log10 of the concentration in mol/L.

Recorded pEC50 for Antibody D (antibody, human IgG1, kappa, L234A L235A, V domains shown) VH: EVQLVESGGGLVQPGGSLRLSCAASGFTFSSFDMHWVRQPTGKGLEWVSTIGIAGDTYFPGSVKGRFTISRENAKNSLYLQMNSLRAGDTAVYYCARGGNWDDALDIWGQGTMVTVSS VL: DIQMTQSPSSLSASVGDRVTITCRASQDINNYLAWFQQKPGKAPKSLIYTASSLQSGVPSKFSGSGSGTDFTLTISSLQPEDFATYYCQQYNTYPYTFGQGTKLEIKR , please?
9.70
